# measured.target: E. coli arabinose binding protein variant C64A/L253C, fluorophore conjugate (Escherichia coli, UniProt P02924, C87A/L276C)
# Construct: initiator methionine (N); Gly-Ser-Gly-(His)n or Gly-Ser-(His)n (n = 5, 6 or 10) (C); made in house; host or cells: E. coli BL21-DE3
# Sequence (P02924 24-329 C87A/L276C): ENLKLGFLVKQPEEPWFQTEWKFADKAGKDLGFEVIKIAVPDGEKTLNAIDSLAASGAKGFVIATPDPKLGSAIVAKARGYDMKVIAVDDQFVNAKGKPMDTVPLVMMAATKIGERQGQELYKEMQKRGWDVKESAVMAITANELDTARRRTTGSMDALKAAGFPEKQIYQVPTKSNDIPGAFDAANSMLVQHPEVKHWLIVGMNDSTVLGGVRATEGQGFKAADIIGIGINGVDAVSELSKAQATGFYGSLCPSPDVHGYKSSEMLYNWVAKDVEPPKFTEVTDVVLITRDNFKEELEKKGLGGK
# method.summary: Fluorimetric titration of fluorophore conjugates
# condition.description: Fluoresecin conjugate, allosteric site
value.kind: pKd
Schema: pKd number; meaning minus log10 of the concentration expressed in molar units.

Quick one: pKd for OC1OC[C@H](O)[C@H](O)[C@H]1O (stereo partly shown) ? 4.32

* * *

# measured.target: E. coli arabinose binding protein variant C64A/F23C, fluorophore conjugate (Escherichia coli, UniProt P02924, C87A/F46C)
# Construct: initiator methionine (N); Gly-Ser-Gly-(His)n or Gly-Ser-(His)n (n = 5, 6 or 10) (C); made in house; host or cells: E. coli BL21-DE3
# Sequence (P02924 24-329 F46C/C87A): as the sequence (P02924 24-329 C87A/L276C) above, with F23C, C253L counted along it
# method.summary: Fluorimetric titration of fluorophore conjugates
# condition.description: NBD conjugate, allosteric site
# Excerpt: Molecular Cloning. […] Additionally the sequence of Fe(III) BP was mutated by substitution of Glu57 with Asp to raise the Kd to a concentration range conveniently measured using Fe(III) citrate. […] Fluorimetry. […] Fluorescence emission spectra were acquired with excitation and emission slit widths of 4 and 8 nm, respectively. […] Analyte affinity measurements. […] The emission wavelength monitored was that of maximum difference in intensity between the ligand-free and bound states. […]
value.kind: pKd
Schema: pKd number; meaning minus log10 of the concentration expressed in molar units.

Quick one: pKd for OC1OC[C@H](O)[C@H](O)[C@H]1O (stereo partly shown) [arabinose] ? 5.30
